System: Staphylococcus aureus (MSSA)
Assay: Expected efficacy of anti-bacterial agents against various bacteria (Tables 5 and 6)
Conditions: Gram: pos
READOUT: Efficacy of various antibiotic agents

CO/N=C(\C(=O)N[C@@H]1C(=O)N2C(C(=O)O)=C(CSc3nc(=O)c(=O)[nH]n3C)CS[C@H]12)c1csc(N)n1    yes
C/C(=C\C(=O)OCCCCCCCCC(=O)O)C[C@@H]1OC[C@H](C[C@@H]2O[C@H]2[C@@H](C)[C@H](C)O)[C@@H](O)[C@H]1O    yes
NC[C@H]1O[C@H](O[C@H]2[C@H](O)[C@@H](O[C@H]3O[C@H](CO)[C@@H](O)[C@H](N)[C@H]3O)[C@H](N)C[C@@H]2N)[C@H](N)C[C@@H]1O    no
CC[C@H]1OC(=O)[C@H](C)[C@@H](O[C@H]2C[C@@](C)(OC)[C@@H](O)[C@H](C)O2)[C@H](C)[C@@H](O[C@@H]2O[C@H](C)C[C@H](N(C)C)[C@H]2O)[C@](C)(O)C[C@@H](C)CN(C)[C@H](C)[C@@H](O)[C@]1(C)O    yes

Moving on to another molecule below.
Task item: Find the recorded Efficacy of various antibiotic agents belonging to CN[C@H](CC(C)C)C(=O)N[C@H]1C(=O)N[C@@H](CC(N)=O)C(=O)N[C@H]2C(=O)N[C@H]3C(=O)N[C@H](C(=O)N[C@H](C(=O)O)c4cc(O)cc(O)c4-c4cc3ccc4O)[C@H](O)c3ccc(c(Cl)c3)Oc3cc2cc(c3O[C@@H]2O[C@H](CO)[C@@H](O)[C@H](O)[C@H]2O[C@H]2C[C@](C)(N)[C@H](O)[C@H](C)O2)Oc2ccc(cc2Cl)[C@H]1O and report it.
Reply: yes

* * *

Test system: Streptococcus pneumoniae
Test: Expected efficacy of anti-bacterial agents against various bacteria (Tables 5 and 6)
Conditions: Gram: pos
READOUT: Efficacy of various antibiotic agents

CN[C@H](CC(C)C)C(=O)N[C@H]1C(=O)N[C@@H](CC(N)=O)C(=O)N[C@H]2C(=O)N[C@H]3C(=O)N[C@H](C(=O)N[C@H](C(=O)O)c4cc(O)cc(O)c4-c4cc3ccc4O)[C@H](O)c3ccc(c(Cl)c3)Oc3cc2cc(c3O[C@@H]2O[C@H](CO)[C@@H](O)[C@H](O)[C@H]2O[C@H]2C[C@](C)(N)[C@H](O)[C@H](C)O2)Oc2ccc(cc2Cl)[C@H]1O    yes
CC[C@H]1OC(=O)[C@H](C)[C@@H](O[C@H]2C[C@@](C)(OC)[C@@H](O)[C@H](C)O2)[C@H](C)[C@@H](O[C@@H]2O[C@H](C)C[C@H](N(C)C)[C@H]2O)[C@](C)(O)C[C@@H](C)CN(C)[C@H](C)[C@@H](O)[C@]1(C)O    yes
NC[C@H]1O[C@H](O[C@H]2[C@H](O)[C@@H](O[C@H]3O[C@H](CO)[C@@H](O)[C@H](N)[C@H]3O)[C@H](N)C[C@@H]2N)[C@H](N)C[C@@H]1O    no
CO/N=C(\C(=O)N[C@@H]1C(=O)N2C(C(=O)O)=C(CSc3nc(=O)c(=O)[nH]n3C)CS[C@H]12)c1csc(N)n1    yes

* * *

Test system: Klebsiella pneumoniae
Test: Expected efficacy of anti-bacterial agents against various bacteria (Tables 5 and 6)
Settings: Gram: neg
READOUT: Efficacy of various antibiotic agents

Solved entries (count: 5):
CN[C@H](CC(C)C)C(=O)N[C@H]1C(=O)N[C@@H](CC(N)=O)C(=O)N[C@H]2C(=O)N[C@H]3C(=O)N[C@H](C(=O)N[C@H](C(=O)O)c4cc(O)cc(O)c4-c4cc3ccc4O)[C@H](O)c3ccc(c(Cl)c3)Oc3cc2cc(c3O[C@@H]2O[C@H](CO)[C@@H](O)[C@H](O)[C@H]2O[C@H]2C[C@](C)(N)[C@H](O)[C@H](C)O2)Oc2ccc(cc2Cl)[C@H]1O    no
CC[C@H]1OC(=O)[C@H](C)[C@@H](O[C@H]2C[C@@](C)(OC)[C@@H](O)[C@H](C)O2)[C@H](C)[C@@H](O[C@@H]2O[C@H](C)C[C@H](N(C)C)[C@H]2O)[C@](C)(O)C[C@@H](C)CN(C)[C@H](C)[C@@H](O)[C@]1(C)O    no
CO/N=C(\C(=O)N[C@@H]1C(=O)N2C(C(=O)O)=C(CSc3nc(=O)c(=O)[nH]n3C)CS[C@H]12)c1csc(N)n1    yes
O=C(O)c1cn(C2CC2)c2cc(N3CCNCC3)c(F)cc2c1=O    yes
C/C(=C\C(=O)OCCCCCCCCC(=O)O)C[C@@H]1OC[C@H](C[C@@H]2O[C@H]2[C@@H](C)[C@H](C)O)[C@@H](O)[C@H]1O    no

Task item: Quick one: Efficacy of various antibiotic agents for NC[C@H]1O[C@H](O[C@H]2[C@H](O)[C@@H](O[C@H]3O[C@H](CO)[C@@H](O)[C@H](N)[C@H]3O)[C@H](N)C[C@@H]2N)[C@H](N)C[C@@H]1O ?
Reply: yes
